Items are presented alongside their recorded pIC50.
Tested on: KYSE-520 cell (human esophageal squamous cell carcinoma cell)
test-summary: Inhibition of the proliferation activity of KYSE-520 cell (CellTiter-Glo)
Format: cell-based
study-conditions: 120 h, KYSE-520 cell proliferation, 5 days
In simple prose, pIC50 is minus the logarithm base ten of a concentration in moles per litre.

Look over these answered cases.
- Cc1nc(N2CCC3(CC2)CO[C@@H](C)[C@H]3N)c(CO)nc1Sc1ccnc(N2CCCC2CO)c1Cl (stereo partly drawn): 6.44
- C[C@@H]1OCC2(CCN(c3ncc(Sc4ccnc(N5CC(CO)(CF)C5)c4Cl)nc3CO)CC2)[C@@H]1N: 7.00
- C[C@@H]1OCC2(CCN(c3ncc(Sc4ccnc(N5CCCC5CO)c4Cl)nc3CO)CC2)[C@@H]1N (stereo partly drawn): 7.00
- C[C@@H]1OCC2(CCN(c3ncc(Sc4ccnc(N5CC(C(C)(C)O)C5)c4Cl)nc3CO)CC2)[C@@H]1N: 7.40
- C[C@@H]1OCC2(CCN(c3ncc(Sc4ccnc(N5CCC(CO)C5)c4Cl)nc3CO)CC2)[C@@H]1N (stereo partly drawn): 7.52

Per the records, this compound ( C[C@@H]1OCC2(CCN(c3ncc(Sc4ccnc(N5CCCC5CO)c4Cl)nc3CF)CC2)[C@@H]1N (stereo partly drawn) ) has pIC50 equal to 6.77

Form: compound = C[C@@H]1OCC2(CCN(c3ncc(Sc4ccnc(N5CCCC5CC(N)=O)c4Cl)nc3CO)CC2)[C@@H]1N (stereo partly drawn) ; pIC50 = 6.72

Looking up CC(N)C1(C)CCN(c2ncc(Sc3ccnc(N4CCCC4CO)c3Cl)nc2CO)CC1 (stereo not drawn) , I found its pIC50 recorded as 5.94

The recorded pIC50 for entry CC(C)(O)C1CN(c2nccc(Sc3ncc(N4CCC5(CC4)Cc4ncccc4[C@H]5N)nc3N)c2Cl)C1 equals 7.15

Memo: CC(C)(O)C1CN(c2nccc(Sc3cnc(N4CCC5(CC4)Oc4ncccc4[C@H]5N)c(CO)n3)c2Cl)C1 , reported pIC50: 7.30

The compound listed as C[C@@H]1OCC2(CCN(c3ncc(Sc4ccnc(N5CC(C)(CO)C5)c4Cl)nc3CO)CC2)[C@@H]1N has a reported pIC50 of 7.22

Kindly note the recorded pIC50 for N[C@@H]1COCC12CCN(c1ncc(Sc3ccnc(N4CCCC4CO)c3Cl)nc1CO)CC2 (stereo partly drawn) , which is 6.11
